Origin of values: ChEMBL document CHEMBL1201862

- Tested on: Streptococcus
- experiment notes: GAS UMAA2166 growth inhibition – luminescence, BacTiterGlo, counter-screen for streptokinase expression inhibitor project, dose response (AID 1915);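 note: potency for reduction of bacterial viability or growth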
- Assay type: functional, organism-based
The source made the active and inactive calls. Cut-off read from the data, not from the text of the source: actives have a measured EC50 and inactives only a lower limit.
attribute measured: EC50

Which measured EC50 value corresponds to CCOC(=O)c1c(S(=O)(=O)N2CCCCCC2)c(C)n(C)c1C ?
> 150 µM (not active)

For O=C(/C(=N\Nc1ccc([N+](=O)[O-])cc1)Sc1nnnn1-c1ccccc1)c1ccccc1 then?
35.8 µM (active)

For O=[N+]([O-])c1c(NCCO)cc(Sc2nc3ccccc3s2)c2nonc12 then?
3.39 µM (active)

For O=C(N/N=C/c1sc2ccccc2c1O)c1cccc2ccccc12 then?
12.4 µM (active)

For CCOC(=O)C1=C(C)N=c2s/c(=C\c3ccc(O)c([N+](=O)[O-])c3)c(=O)n2C1c1ccccc1OC (configuration not stated) then?
31.3 µM (active)

For CCc1ccc(Nc2n[n+](-c3ccccc3)c(-c3c(Cl)cccc3Cl)s2)cc1 then?
10.3 µM (active)

For CC12CCC(C/C1=N\NC1=NC(=O)/C(=C\c3ccc(Cl)cc3)S1)C2(C)C (configuration not stated) then?
2.34 µM (active)
